Data provenance: the supplement of paper PMC10567573

B1: TRIM35 (parent)
chain: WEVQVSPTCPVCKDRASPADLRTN

# Variants of: B1
# Assay protocol: protein stability index of a GFP-peptide fusion (GPS, HEK-293T) (PSI 1-6); higher = more stable;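 further: lentivirally expressed fusions sorted by FACS into six bins by GFP to DsRed ratio, PSI derived from sequencing read proportions per bin multiplied by bin number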
# Study conditions: c terminus: a fixed tail appended
# binarize protein stability index: threshold 2 inclusive, high side Yes, low side No

Here are 5 variants together with their reported answers.
Record `K13P` ; criterion: protein stability index no lower than 2. Met?
Yes

Could you do the same for `P18R` , please?
Yes

Could you do the same for `P10M` , please?
Yes

Could you do the same for `A16N` , please?
No

Could you do the same for `W1D` , please?
Yes

***
Record `A16K` ; criterion: protein stability index no lower than 2. Met?
Yes

Could you do the same for `D14Q` , please?
Yes

Could you do the same for `V3A` , please?
Yes

Could you do the same for `R22H` , please?
Yes

Could you do the same for `V3Y` , please?
Yes

Could you do the same for `W1V` , please?
Yes

Could you do the same for `Q4T` , please?
Yes

Could you do the same for `V11K` , please?
Yes

Could you do the same for `P7Q` , please?
Yes

Could you do the same for `C12M` , please?
Yes

Could you do the same for `T8W` , please?
Yes

Could you do the same for `N24L` , please?
No

Could you do the same for `V11A` , please?
Yes

Could you do the same for `R15F` , please?
Yes

Could you do the same for `T23Q` , please?
Yes

Could you do the same for `R15I` , please?
Yes
